System: Bacillus subtilis
ASSAY_REMARKS: Antibacterial activity against penicillin-susceptible Bacillus subtilis ATCC9372 assessed as bacterial growth inhibition incubated for 20 hrs by CLSI based broth microdilution method
Assay type: functional

QUERY_SMILES	MIC, µg/mL
C[n+]1cc(-c2ccccc2)c(/C=C/c2ccc(N3CCCCC3)cc2)cc1-c1ccc2ccccc2c1.[I-]	1
C[n+]1cc(-c2ccccc2)c(/C=C/c2ccc(N3CCCCC3)cc2)cc1-c1ccc(C(C)(C)C)cc1.[I-]	0.5
C[n+]1cc(-c2ccccc2)c(/C=C/c2ccc(Cl)c(Cl)c2)cc1-c1ccc(C(C)(C)C)cc1.[I-]	2
C[n+]1cc(-c2ccccc2)cc(/C=C/c2ccccc2[N+](=O)[O-])c1-c1ccccc1.I	16
NC(=O)c1c(F)ccc(OCc2nc3cc(Cl)cnc3s2)c1F	0.5
C[n+]1cc2c3c(ccc2c2ccc4cc5c(cc4c21)OCO5)OCO3	4
CC(C)c1ccc(/C=C/c2cc(-c3ccc(C(C)(C)C)cc3)[n+](C)cc2-c2ccccc2)cc1.[I-]	0.125
C[n+]1cc(-c2ccccc2)cc(/C=C/c2ccc(C#N)cc2)c1-c1ccccc1.[I-]	32
C[n+]1cc(-c2ccccc2)cc(/C=C/c2ccc(Cl)c(Cl)c2)c1-c1ccccc1.[I-]	0.5
CCc1ccc(/C=C/c2cc(-c3ccc(C(C)(C)C)cc3)[n+](C)cc2-c2ccccc2C)cc1.[I-]	0.5
COc1cc(/C=C/c2cc(-c3ccccc3)c[n+](C)c2-c2ccccc2)cc(OC)c1OC.[I-]	16

Origin of the recorded values: ChEMBL document CHEMBL5537115
